# STUDY TARGET: T1, HqRRM1 (hnRNP H qRRM1) (human, UniProt P31943 10-111)
# T1 sequence: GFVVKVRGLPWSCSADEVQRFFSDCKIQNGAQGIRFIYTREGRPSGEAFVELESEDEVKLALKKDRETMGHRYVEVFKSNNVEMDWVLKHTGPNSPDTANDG
# PROTOCOL: ITC
PARAMETER MEASURED: pKd
Recall that pKd is obtained by taking minus log10 of the concentration measured in molar.

Measured pKd, AGGGU (ssRNA) : 5.49
